# EC50 (read off the curve) annotations
target: T1, human CD47 expressed on cells (CD47 expressing CHO cells, Jurkat, HL60, DLD1, Raji) (human, UniProt Q08722 19-292); assay: flow cytometry on DLD1 cells, IgG, frequency
T1 construct: also called CHO-CD47; IAP

binder: Positive 2 (benchmark analogue antibody) (antibody, V domains shown, also called Pos) VH: QVQLQQPGAELVKPGASVMMSCKASGYTFTNYNMHWVKQTPGQGLEWIGTIYPGNDDTSYNQKFKDKATLTADKSSSAAYMQLSSLTSEDSAVYYCARGGYRAMDYWGQTSVTVSS VL: DVLMTQTPLSLPVSLGDQASISCRSSQSIVYSNGNTYLGWYLQKPGQSPKLLIYKVSNRFSGVPDRFSGSGSGTDFTLKISRVEAEDLGVYHCFQGSHVPYTFGGGTKVEIK
EC50 (read off the curve): ~2 nM

**Q:** May I ask what EC50 (read off the curve) has been recorded for ABU24 (IgG, chimeric version of the Fab) (antibody, V domains shown) VH: EVQLQQPGTELVKPGASVKLSCKASGYTFTSYWMHWVKQRPGQGLEWIGNVVPNNDGTNYNEKFRNKATLTVDKSSSTAYMQLSSLTSEDSAVYYCAVTYFAYWGQGTLVTVSA VL: DAVVTQESALTTSPGETVTLTCRSSTGAVSTSNYANWVQEKPDHLFTGLIGGTNNRAPGVPARFSGSLIGDKAALTITGAQTEDEAIYFCALWYSNHWVFGGGTKLTVL ?
**A:** ~10 nM

**Q:** // same read-out, input: ABU14 (IgG, chimeric version of the Fab) (antibody, V domains shown) VH: EVQLQQSGPELVKPGASVKISCKASGYSFTNYHIHWVKQRPGQGLEWIGWIYPGSGNTKYNEKFKGMAILTADTSSSTAYMQLSSLTSEDSAVYYCARYDYDLYLHSWGQGTTVTVSS VL: DIQINQSPSSLSASLGDTITITCHASQNINVWLSWYQQKPGNIPKLLIYKASNLHTGVPSRFSGSGSGTGFTLTISSLQPEDIATYYCQQGQSYPLTFGAGTKLEIK
**A:** ~0.05 nM

**Q:** // same read-out, input: ABU40 (IgG, chimeric version of the Fab) (antibody, V domains shown) VH: EVQLQQPGTELVKPGASVKLSCKASGYSFTTYWMHWVKQRPGQGLEWIGNINPSSGDSHYNEKFKSKATLTVDKSSSTAYMQLNSLTSEDSAVYYCARDYYGAYWGHGTLVTVSA VL: DIQMTQSPASLSASVGETVTITCRASENIYSYLAWYQQKQGKSPQLLVYNAKTLAEGVPSRFSGSGSGTQFSLKINSLQPEDFGSYYCQHHYGTPLTFGAGTKLELK
**A:** ~7 nM
